In this section, each of the compounds is paired with its reported Ratio.
Biological target: Sigma non-opioid intracellular receptor 1 (Rattus norvegicus)
Assay: Ratio of the binding affinities for sigma-1 and sigma 2 type receptors, ratio of IC50
Keep the answer to the number alone.

Reference set, count: 5
Smiles Entry: Cn1cc(CCCCN2CCC3(CC2)OCc2ccccc23)c2ccccc21
Ratio: 7
--
Smiles Entry: c1ccc2c(c1)COC21CCN(CCCCc2cn(-c3ccsc3)c3ccccc23)CC1
Ratio: 28
--
Smiles Entry: Fc1ccc(-n2cc(CN3CCC4(CC3)OCc3ccccc34)c3ccccc32)cc1
Ratio: 0.64
--
Smiles Entry: c1ccc(Cn2cc(CCCCN3CCC4(CC3)OCc3ccccc34)c3ccccc32)cc1
Ratio: 11
--
Smiles Entry: c1ccc2c(c1)COC21CCN(CCCCc2cn(-c3ccncc3)c3ccccc23)CC1
Ratio: 34

(Q) Endpoint output: Ratio of `Fc1ccc(-n2cc(CCCN3CCC4(CC3)OCc3ccccc34)c3ccccc32)cc1` . Value?
(A) 3.6

(Q) Endpoint output: Ratio of `Fc1ccc(-n2cc(CCCCN3CCN(c4ccccc4)CC3)c3ccccc32)cc1` . Value?
(A) 39

(Q) Endpoint output: Ratio of `CC(=O)n1cc(CCCCN2CCC3(CC2)OCc2ccccc23)c2ccccc21` . Value?
(A) 27

(Q) Endpoint output: Ratio of `c1ccc2c(c1)COC21CCN(CCCCc2cn(-c3nccs3)c3ccccc23)CC1` . Value?
(A) 74

(Q) Endpoint output: Ratio of `c1csc(-n2cc(CCCCN3CCC4(CC3)OCc3ccccc34)c3ccccc32)c1` . Value?
(A) 32

(Q) Endpoint output: Ratio of `Fc1ccc(-n2cc(CCCCN3CCC(c4ccccc4)CC3)c3ccccc32)cc1` . Value?
(A) 100

* * *

In this section, each of the compounds is paired with its reported IC50.
Molecular target: Sigma 2 receptor
Assay: Binding affinity towards sigma receptor binding site 2 using [3H]DTG of whole rat brain homogenates except cerebellum
Kindly provide the numeric value in nM only, without the unit symbol.

Compound: Fc1ccc(C2=CCN(CCCCc3c[nH]c4ccccc34)CC2)cc1
Test Target: Sigma 2 receptor
IC50 / nM: 2.3
--
Compound: Cc1ccc(S(=O)(=O)n2cc(CCCCN3CCC4(CC3)OCc3ccccc34)c3ccccc32)cc1
Test Target: Sigma 2 receptor
IC50 / nM: 0.17
--
Compound: c1csc(-n2cc(CCCCN3CCC4(CC3)OCc3ccccc34)c3ccccc32)c1
Test Target: Sigma 2 receptor
IC50 / nM: 0.24
--
Compound: Fc1ccc(-n2cc(CCN3CCC4(CC3)OCc3ccccc34)c3ccccc32)cc1
Test Target: Sigma 2 receptor
IC50 / nM: 3
--
Compound: Fc1ccc(-n2cc(CCCN3CCC4(CC3)OCc3ccccc34)c3ccccc32)cc1
Test Target: Sigma 2 receptor
IC50 / nM: 2.8
--
Compound: COc1ccccc1N1CCN(CCCCc2c[nH]c3ccccc23)CC1
Test Target: Sigma 2 receptor
IC50 / nM: 21
--
Compound: c1ccc(Cn2cc(CCCCN3CCC4(CC3)OCc3ccccc34)c3ccccc32)cc1
Test Target: Sigma 2 receptor
IC50 / nM: 0.48
--
Compound: Fc1ccc(-n2cc(CCCCN3CCC(c4ccccc4)CC3)c3ccccc32)cc1
Test Target: Sigma 2 receptor
IC50 / nM: 0.44
--
Compound: Fc1ccc(-n2cc(CCCCN3CCN(c4ccccc4)CC3)c3ccccc32)cc1
Test Target: Sigma 2 receptor
IC50 / nM: 0.69
--
Compound: Fc1ccc(C2=CC3CCC(C2)N3CCCCc2cn(-c3ccc(F)cc3)c3ccccc23)cc1 (stereo unspecified)
Test Target: Sigma 2 receptor
IC50 / nM: 2.5

(Q) Endpoint output: IC50 of `CC(=O)n1cc(CCCCN2CCC3(CC2)OCc2ccccc23)c2ccccc21` . Value?
(A) 0.21

(Q) Endpoint output: IC50 of `COc1ccccc1C1CCN(CCCCc2c[nH]c3ccccc23)CC1` . Value?
(A) 3.3
